Cited source: patent US20190119389A1

Molecular target: T1, Human NRP-1 His (human, UniProt O14786 22-856)
T1 construct: Recombinant monomeric protein; Biotinylated in the MSD-SET assay; also called hNRP-1; not shown: His tag
T1 sequence (O14786 22-856 V179A limits assumed): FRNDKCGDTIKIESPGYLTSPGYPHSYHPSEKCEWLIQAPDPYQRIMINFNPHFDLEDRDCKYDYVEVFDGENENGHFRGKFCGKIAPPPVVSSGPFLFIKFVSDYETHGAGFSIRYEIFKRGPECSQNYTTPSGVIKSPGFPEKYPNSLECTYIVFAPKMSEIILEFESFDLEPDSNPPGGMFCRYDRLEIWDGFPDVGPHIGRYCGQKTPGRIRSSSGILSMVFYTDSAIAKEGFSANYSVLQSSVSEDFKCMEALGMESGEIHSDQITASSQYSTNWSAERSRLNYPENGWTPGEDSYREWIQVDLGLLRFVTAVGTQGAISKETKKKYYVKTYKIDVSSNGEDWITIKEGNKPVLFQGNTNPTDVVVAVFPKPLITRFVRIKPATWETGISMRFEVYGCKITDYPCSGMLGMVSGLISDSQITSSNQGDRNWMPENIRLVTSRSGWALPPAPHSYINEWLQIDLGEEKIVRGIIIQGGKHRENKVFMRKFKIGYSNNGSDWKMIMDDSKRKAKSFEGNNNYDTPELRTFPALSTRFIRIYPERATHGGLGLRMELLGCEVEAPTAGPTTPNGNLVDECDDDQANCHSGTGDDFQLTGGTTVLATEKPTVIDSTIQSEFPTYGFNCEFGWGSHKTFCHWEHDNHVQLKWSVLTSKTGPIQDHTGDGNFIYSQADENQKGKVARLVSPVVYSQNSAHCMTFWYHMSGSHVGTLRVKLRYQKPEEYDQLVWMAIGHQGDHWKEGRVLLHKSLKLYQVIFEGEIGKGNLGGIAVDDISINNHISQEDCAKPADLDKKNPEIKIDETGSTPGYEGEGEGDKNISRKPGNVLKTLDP
Assay: BLI ForteBio, IgG1 N297A on AHQ sensor, 100 nM monomeric antigen, 1:1 fit
REPORTED_ENDPOINT: pKd
Keep in mind that pKd stands for -log10 of concentration in molar terms.

Answered cases to consult:
BINDER: MAB14 (antibody, V domains shown) VH: QVQLQQWGAGLLKPSETLSLTCAVYGGSFRGYYWEWSRQPPGKGLEWIGEISHSGSTNYNPSLKSRVTISVDTSKNQFSLKLSPVTAADTAVYYCARARPYREPYGMDVWGQGTTVTVSS VL: DIQLTQSPSSVSASVGDRVTITCRASQDISSWLAWYQQKPGKAPKLLIYAASSLQSGVPSRFSGSGSGTDFTLTISSLQPEDFATYYCQQELAFPRTFGGGTKVEIK
pKd: 8.95

BINDER: MAB10 (antibody, V domains shown) VH: EVQLLESGGGLVQPGGSLRLSCAASGFTFSSVAMVWVRQAPGKGLEWVSAISGSGGATYYADSVKGRFTISRDNSKNTLYLQMNSLRAEDTAVYYCAKDPGYDSSRYYYSNYGMDVWGQGTTVTVSS VL: DIQMTQSPSSLSASVGDRVTITCRASQSISSYLNWYQQKPGKAPKLLIYGASSLQSGVPSRFSGSGSGTDFTLTISSLQPEDFATYYCQQTYSLYTFGGGTKVEIK
pKd: 9.06

BINDER: MAB8 (antibody, V domains shown) VH: EVQLLESGGGLVQPGGSLRLSCAASGFTFASYAMVWVRQAPGKGLEWVSIISGSGGSTYYADSVKGRFTISRDNSKNTLYLQMNSLRAEDTAVYYCAKDPGYDSSRYYYSNYGMDVWGQGTTVTVSS VL: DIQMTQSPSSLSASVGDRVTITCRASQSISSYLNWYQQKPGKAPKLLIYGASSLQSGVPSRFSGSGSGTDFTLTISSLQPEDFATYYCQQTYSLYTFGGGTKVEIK
pKd: 9.21

Would you kindly look at the next entry?
# get_value(readout='pKd', item= MAB11 (antibody, V domains shown) VH: EVQLLESGGGLVQPGGSLRLSCAASGFTFSSVAMVWVRQAPGKGLEWVSAISGSGGATYYADSVEGRFTISRDNSKNTLYLQMSSLRAEDTAVYYCAKDPGYDSSRYYYSNYGMDVWGQGTTVTVSS VL: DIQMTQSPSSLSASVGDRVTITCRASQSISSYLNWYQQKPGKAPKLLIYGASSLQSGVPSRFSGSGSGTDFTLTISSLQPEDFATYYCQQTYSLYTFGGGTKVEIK )
9.31
